tested-on: full-length TcPINK1 (1–570) (Tribolium castaneum)
Construct: Kinetics of phosphorylation of PINKtide and indicated variants by full-length TcPINK1 (1–570); made in house; host or cells: E. coli BL21 Codon+
Sequence (D6WMX4 1-570): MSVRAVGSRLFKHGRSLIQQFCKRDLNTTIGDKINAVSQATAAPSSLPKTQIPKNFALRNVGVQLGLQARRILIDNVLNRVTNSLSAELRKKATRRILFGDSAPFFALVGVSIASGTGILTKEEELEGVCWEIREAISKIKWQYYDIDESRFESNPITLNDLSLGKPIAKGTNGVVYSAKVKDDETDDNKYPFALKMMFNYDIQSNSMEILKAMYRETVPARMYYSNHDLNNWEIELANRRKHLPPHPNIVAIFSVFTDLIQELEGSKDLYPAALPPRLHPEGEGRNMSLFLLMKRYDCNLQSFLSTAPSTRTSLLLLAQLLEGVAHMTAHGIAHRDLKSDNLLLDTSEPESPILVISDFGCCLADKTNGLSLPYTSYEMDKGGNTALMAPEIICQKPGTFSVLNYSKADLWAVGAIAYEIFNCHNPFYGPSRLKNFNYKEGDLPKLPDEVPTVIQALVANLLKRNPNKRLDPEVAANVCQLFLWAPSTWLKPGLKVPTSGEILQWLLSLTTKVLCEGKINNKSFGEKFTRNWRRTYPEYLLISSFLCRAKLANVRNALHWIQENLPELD
assay-details: Peptide substrate kinase assay: phosphorylation of PINKtide and variants, [γ-32P] ATP, P81 paper
Assay type: biochemical
test-parameters: phosphorylation of the peptide substrate by full-length TcPINK1 (1–570); kinase 1 µM, 0.1 mM [γ-32P] ATP, 30 min, 30°C; 1 U = incorporation of 1 nmol of ATP into substrate; nonlinear regression; n.d. = peptide phosphorylated poorly, kinetic values not determinable
Recorded Vmax by entry
Numeric answer only, unit U mg^−1 assumed.

Record excerpt, results attached:
substance | Vmax [U mg^−1]
KKWISRRSPRRR [PINKtide variant at the −3 position] | 3
KKWIYRRSPRRR [PINKtide variant at the −3 position] | 3
KKWIFRRSPRRR [PINKtide variant at the −3 position] | 2
KKWIpSRRSPRRR [PINKtide variant at the −3 position] | 3
KKLIpYRRSPRRR [PINKtide variant at the −5 position] | 5

Now for another entry.
get_value(item= KKWIpYRRTPRRR [PINKtide variant, phosphorylated Ser changed to Thr] , readout=Vmax) returns 8

---

Recorded Vmax by entry
tested-on: full-length TcPINK1 (1–570) (Tribolium castaneum)
Construct: Kinetics of phosphorylation of PINKtide and indicated variants by full-length TcPINK1 (1–570); made in house; host or cells: E. coli BL21 Codon+
Sequence (D6WMX4 1-570): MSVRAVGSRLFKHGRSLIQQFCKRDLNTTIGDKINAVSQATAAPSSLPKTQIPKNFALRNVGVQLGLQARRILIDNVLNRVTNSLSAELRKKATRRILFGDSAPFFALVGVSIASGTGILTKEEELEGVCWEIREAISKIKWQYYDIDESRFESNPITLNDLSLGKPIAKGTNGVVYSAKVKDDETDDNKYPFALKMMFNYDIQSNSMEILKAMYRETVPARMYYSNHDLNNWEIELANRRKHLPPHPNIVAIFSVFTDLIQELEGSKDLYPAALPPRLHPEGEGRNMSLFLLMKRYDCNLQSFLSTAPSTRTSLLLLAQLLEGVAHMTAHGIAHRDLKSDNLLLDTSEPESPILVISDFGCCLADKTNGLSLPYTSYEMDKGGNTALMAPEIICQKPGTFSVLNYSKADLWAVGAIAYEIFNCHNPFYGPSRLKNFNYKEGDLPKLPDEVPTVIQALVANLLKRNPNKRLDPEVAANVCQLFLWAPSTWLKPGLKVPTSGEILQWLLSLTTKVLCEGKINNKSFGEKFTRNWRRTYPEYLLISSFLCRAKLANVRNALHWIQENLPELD
assay-details: Peptide substrate kinase assay: phosphorylation of PINKtide and variants, [γ-32P] ATP, P81 paper
Format: biochemical
test-parameters: phosphorylation of the peptide substrate by full-length TcPINK1 (1–570); kinase 1 µM, 0.1 mM [γ-32P] ATP, 30 min, 30°C; 1 U = incorporation of 1 nmol of ATP into substrate; nonlinear regression; n.d. = peptide phosphorylated poorly, kinetic values not determinable
Numeric answer only, unit U mg^−1 assumed.

substance | tested-on | Vmax, U mg^−1
KKEIpYRRSPRRR [PINKtide variant at the −5 position] | full-length TcPINK1 (1–570) (Tribolium castaneum) | 6
KKWIERRSPRRR [PINKtide variant at the −3 position] | full-length TcPINK1 (1–570) (Tribolium castaneum) | 2
KKFIpYRRSPRRR [PINKtide variant at the −5 position] | full-length TcPINK1 (1–570) (Tribolium castaneum) | 3

Now for another entry.
get_value(item= KKWITRRSPRRR [PINKtide variant at the −3 position] , readout=Vmax) returns 3
